Overview of reported pKd across a group of binders:
Biological target: T1, PUF4 RNA-binding domain (Saccharomyces cerevisiae, UniProt P25339 537-888)
T1 sequence: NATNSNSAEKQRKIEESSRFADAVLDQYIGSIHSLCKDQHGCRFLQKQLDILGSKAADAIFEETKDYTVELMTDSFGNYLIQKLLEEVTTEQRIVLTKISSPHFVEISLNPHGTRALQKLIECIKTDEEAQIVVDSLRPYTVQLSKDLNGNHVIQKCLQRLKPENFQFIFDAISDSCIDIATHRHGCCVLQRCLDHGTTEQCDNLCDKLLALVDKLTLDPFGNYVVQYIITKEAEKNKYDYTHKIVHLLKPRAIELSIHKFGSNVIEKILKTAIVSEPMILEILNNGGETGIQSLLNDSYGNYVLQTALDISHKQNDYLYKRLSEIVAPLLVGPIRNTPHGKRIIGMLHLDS
Test: Mg; RNA-MaP; 20 mM Na-HEPES pH 7.4, 30 mM KOAc, 0.75 mM MgCl2, 0.1% Tween-20, 5% glycerol, 0.1 mg/mL BSA, 2 mM DTT; 25 C; 0.0125-409.6 nM protein
Conditions: tags: N-His6-TEV cleaved; C-SNAP kept, Cy3B-labelled; label: tethered on chip by stalled RNA polymerase
# pKd is unitless: minus log10 of the molar concentration; print number only

Sample records with pKd:
• Id_ii_S2_P3E.4_K3.3_C3.2_[C-2G]_H3.3_A3.1_F3.1_T3.2_[T9C]_[A10T] (ssRNA) RNA: UUUGAUUAAUAUGAUAUCGUUCUUUCUGUACACUAUACUUUCUUUCUCGAUAUCAUAUUAAUCUUU = 8.70
• Id_ii_S2_P4E.3_K4.2_C4.2_[C-2T]_[T-1C]_H4.2_A4.1_F4.1_T4.2_[G10A] (ssRNA) RNA: UUUGAUUAAUAUGAUAUCGUUCUUUCUUCUAUAUAUUAAUUUCUUUCUCGAUAUCAUAUUAAUCUUU = 8.05
• Ie_S4_P4E.1_K4.1_C4.1_H4.1_A4.1_F4.1_[+8TCTC]_T4.1 (ssRNA) RNA: UUUGACAACUGAUCGUUCUUUCUUGUAUAUUUCUCAUUCUUUCUCGAUCAGUUGUCUUU = 8.25

Q: What value of measured pKd is listed for UCUCUUCAUGUAUAUUAUUUCUCUU (ssRNA) [Id_ii_S1_P4E.2_K4.1_C4.2_[T-1A]_H4.1_A4.1_F4.1_T4.2_[G10T]] ?
Ans: 9.04
